The reported measurements were obtained from paper PMC2755957.

Molecular target: mouse Δ1–24-L-PGDS (lipocalin type prostaglandin D synthase) (Mus musculus, UniProt O09114, W54A)
Experiment: surface plasmon resonance
pKd: −log10 of the molar value.

>  <molecule>
CCCCC[C@H](O)/C=C/[C@@H]1[C@@H](C/C=C\CCCC(=O)O)[C@H]2CO[C@@H]1C2 [U-46619]

>  <pKd>
4.36

$$$$
>  <molecule>
CCCCC[C@H](O)/C=C/[C@H]1[C@@H]2CO[C@@H](C2)[C@@H]1C/C=C\CCCC(=O)O [U-44069]

>  <pKd>
4.69

$$$$

###

Target: Δ^1–24-C65A + H111A (Mus musculus, UniProt O09114, C65A/H111A)
Sequence (O09114 1-189 C65A/H111A): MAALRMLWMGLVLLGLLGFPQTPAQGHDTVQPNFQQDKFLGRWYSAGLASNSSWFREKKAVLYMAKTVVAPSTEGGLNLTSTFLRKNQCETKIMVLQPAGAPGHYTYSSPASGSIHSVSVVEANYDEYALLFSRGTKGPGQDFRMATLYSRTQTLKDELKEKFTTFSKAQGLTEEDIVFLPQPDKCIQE
Assay: biochemical

>  <compound>
CCCCC[C@H](O)/C=C/[C@@H]1[C@@H](C/C=C\CCCC(=O)O)[C@H]2CO[C@@H]1C2 [U-46619]

>  <Kd>
37.2 µM

$$$$
>  <compound>
CCCCC[C@H](O)/C=C/[C@H]1[C@@H]2CO[C@@H](C2)[C@@H]1C/C=C\CCCC(=O)O [U-44069]

>  <Kd>
38.1 µM

$$$$

###

Target: mouse Δ1–24-L-PGDS (lipocalin type prostaglandin D synthase) (Mus musculus, UniProt O09114, S45A/S81A/T67A)
Assay: surface plasmon resonance
Format: binding
pKd: −log10 of the molar value.

>  <compound>
CCCCC[C@H](O)/C=C/[C@H]1[C@@H]2CO[C@@H](C2)[C@@H]1C/C=C\CCCC(=O)O [U-44069]

>  <pKd>
4.89

$$$$
>  <compound>
CCCCC[C@H](O)/C=C/[C@@H]1[C@@H](C/C=C\CCCC(=O)O)[C@H]2CO[C@@H]1C2 [U-46619]

>  <pKd>
4.66

$$$$
